Some compounds, each annotated with its measured inhibition at 10 µM.
- measured_target: muscarinic M1 receptors (Rattus norvegicus, UniProt P08482)
- Construct: The cortex of rat brains obtained from male Sprague-Dawley rats; from tissue; host or cells: rat brain cortex homogenate (male Sprague-Dawley)
- Sequence (P08482 1-460): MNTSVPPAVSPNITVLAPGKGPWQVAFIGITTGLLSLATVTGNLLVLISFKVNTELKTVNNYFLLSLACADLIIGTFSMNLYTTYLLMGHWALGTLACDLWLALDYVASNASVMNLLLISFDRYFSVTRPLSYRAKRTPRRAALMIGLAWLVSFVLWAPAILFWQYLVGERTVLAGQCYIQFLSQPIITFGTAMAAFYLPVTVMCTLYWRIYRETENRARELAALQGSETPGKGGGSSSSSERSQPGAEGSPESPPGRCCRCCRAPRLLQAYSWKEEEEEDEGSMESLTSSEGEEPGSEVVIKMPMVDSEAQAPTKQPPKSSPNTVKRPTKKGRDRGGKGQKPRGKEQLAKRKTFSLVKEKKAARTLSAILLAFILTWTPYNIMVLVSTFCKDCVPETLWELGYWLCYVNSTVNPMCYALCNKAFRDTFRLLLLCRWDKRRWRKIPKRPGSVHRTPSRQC
- assay_explanation: Tritiated pirenzepine ([^3 H]PZ) binding inhibition, rat brain cortex (M1 binding)
- condition_summary: [^3 H]PZ 0.5 nM, read-out: M1 Binding % Inhib. of [^3 H] Pz @ 10 μM
Remember to follow the number with its unit.

Answered examples (3):
COCc1nnc(NCCCCN2CC3CCC(CC3)C2)c2cc3n(c12)CCCC3 101%
CCN(CC)CCCNc1nnc(COC)c2c1cc1n2CCCC1 109%
COCc1nnc(NCCCN2CC3CCC(CC3)C2)c2cc3ccccn3c12 100%

Enquiry: What is its inhibition at 10 µM for muscarinic M1 receptors (Rattus norvegicus, UniProt P08482)? Entry: `COCc1nnc(NCCCCN2CC3CCC(CC3)C2)c2cc3ccccn3c12`
Return: 100%

Enquiry: Moving on to the next compound: `c1ccc(COCc2nnc(NCCN3CCN(c4ncccn4)CC3)c3cc4ccccn4c23)cc1`
Return: 98.3%
